System: H460 cells
procedure.details: MTT cytotoxicity assay, H460 cells transfected with α-enolase siRNA
Type: cell-based, human
conditions: control, read-out: Control (EC50)
Procedure: To establish the effectiveness of α-enolase silencing on other cancer cell types, H460 non-small cell lung cancer cells were challenged with a chemotherapeutic drug, MTT cytotoxicity assays were carried out and survival curves plotted as shown in FIG. 17.
attribute.measured: EC50 (nM)

N.N.[Cl][Pt][Cl] [Cisplatinum] : 44.4

###

Tested on: MDA-435 cells
procedure.details: cells
Type: cell-based, human
conditions: Homo sapiens, MDA435; MDA-435 cells, Eno-1 siRNA; read-out: Eno-1 (EC50)
Entries annotated with measured EC50
attribute.measured: EC50 (nM)

CC(=O)O[C@@]12CO[C@@H]1C[C@H](O)[C@@]1(C)C(=O)[C@H](O)C3=C(C)[C@@H](OC(=O)[C@H](O)[C@@H](NC(=O)OC(C)(C)C)c4ccccc4)C[C@@](O)([C@@H](OC(=O)c4ccccc4)[C@H]21)C3(C)C : 0.182
CC[C@]1(O)C[C@@H]2CN(CCc3c([nH]c4ccccc34)[C@@](C(=O)OC)(c3cc4c(cc3OC)N(C)[C@H]3[C@@](O)(C(=O)OC)[C@H](OC(C)=O)[C@]5(CC)C=CCN6CC[C@]43[C@@H]65)C2)C1 : 0.872
CC(=O)O[C@H]1C(=O)[C@@]2(C)[C@H]([C@H](OC(=O)c3ccccc3)[C@]3(O)C[C@H](OC(=O)[C@H](O)[C@@H](NC(=O)c4ccccc4)c4ccccc4)C(C)=C1C3(C)C)[C@]1(OC(C)=O)CO[C@@H]1C[C@@H]2O : 0.334
CC[C@]1(O)C[C@H]2CN(CCc3c([nH]c4ccccc34)[C@@](C(=O)OC)(c3cc4c(cc3OC)N(C=O)[C@H]3[C@@](O)(C(=O)OC)[C@H](OC(C)=O)[C@]5(CC)C=CCN6CC[C@]43[C@@H]65)C2)C1 : 0.375
